target: T1, human VISTA extracellular domain (human, UniProt Q9H7M9 33-194); assay: SPR ProteOn
T1 construct: also called human VISTA ECD; SB0361 (human)
T1 sequence (Q9H7M9 other isoform, or with tags, fused parts or gaps limits assumed): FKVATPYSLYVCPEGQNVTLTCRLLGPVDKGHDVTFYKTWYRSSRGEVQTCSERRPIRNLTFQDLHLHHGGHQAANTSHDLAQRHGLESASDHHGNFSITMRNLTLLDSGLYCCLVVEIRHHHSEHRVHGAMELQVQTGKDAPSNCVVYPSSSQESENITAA
measured endpoint: koff (s⁻¹)
Express your answer in s⁻¹, writing the number without its unit.

binder	koff / s⁻¹
VSTB60 (antibody, human IgG1, kappa, V domains shown, also called S47; INX Code 47) VH: QVQLVQSGSELKKPGASVKVSCKASGYTFTNYGMTWVRQAPGQGLEWMGWINTYTGESTYADDFKGRFVFSLDTSVSTAYLQICSLKAEDTAVYYCARDYYGIYVSAYWGQGTLVTVSS VL: DIVMTQTPLSLSVTPGQPASISCRASESVDNYANSFMHWYLQKPGQSPQLLIYRASNLESGVPDRFSGSGSGTDFTLKISRVEAEDVGVYYCQQSHEDPYTFGQGTKLEIKR	0.000183
VSTB50 (antibody, human IgG1, kappa, V domains shown, also called S41; INX Code 41) VH: QVQLVQSGSELKKPGASVKVSCKASGYTFTNYGLNWVRQAPGQGLEWMGWINPYTGEPTYADDFKGRFVFSLDTSVSTAYLQICSLKAEDTAVYYCAREGYGNYIFPYWGQGTLVTVSS VL: DIVMTQTPLSLSVTPGQPASISCRASESVDTYANSLMHWYLQKPGQPPQLLIYRASNLESGVPDRFSGSGSGTDFTLKISRVEAEDVGVYYCQQTNEDPRTFGQGTKLEIKR	0.000305
VSTB53 (antibody, human IgG1, kappa, V domains shown, also called S43; INX Code 43) VH: QVQLVQSGAEVKKPGASVKVSCKASGYTFTHYTIHWVRQAPGQGLEWMGYIIPSSGYSEYNQKFKDRVTMTRDTSTSTVYMELSSLRSEDTAVYYCARGAYDDYYDYYAMDYWGQGTLVTVSS VL: DIVMTQSPLSLPVTPGEPASISCRSSQTIVHSNGNTYLEWYLQKPGQSPQLLIYKVSNRFSGVPDRFSGSGSGTDFTLKISRVEAEDVGVYYCFQASHVPWTFGQGTKLEIKR	3.3e-05

Proceeding to the next binder to report its koff.
Query block: Tell us which koff value is on record for VSTB95 (antibody, human IgG1, kappa, V domains shown, also called S16; INX Code 16) VH: EVQLVESGGGLVQPGGSLRLSCAASGFTFRNYGMSWVRQAPGKGLEWVASIISGGSYTYYPDSVKGRFTISRDNAKNSLYLQMNSLRAEDTAVYYCARIYDHDGDYYAMDYWGQGTTVTVSS VL: DIVMTQSPLSLPVTPGEPASISCRSSQSIVHSNGNTYLEWYLQKPGQSPQLLIYKVSNRFSGVPDRFSGSGSGTDFTLKISRVEAEDVGVYYCFQGSHVPWTFGQGTKLEIKR
Result block: 6.99e-05
